Entries and their pIC50
- target: Proteasome Macropain subunit MB1 (Homo sapiens)
- Sequence (P28074 whole entry): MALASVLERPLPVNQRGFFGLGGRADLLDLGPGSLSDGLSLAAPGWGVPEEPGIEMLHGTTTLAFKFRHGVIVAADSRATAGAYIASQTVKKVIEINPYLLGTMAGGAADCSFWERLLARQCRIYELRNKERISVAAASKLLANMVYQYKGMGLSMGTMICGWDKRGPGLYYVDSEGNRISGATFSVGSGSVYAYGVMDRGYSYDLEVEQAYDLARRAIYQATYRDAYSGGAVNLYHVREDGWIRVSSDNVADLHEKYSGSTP
- measurementDescription: Inhibition of chymotrypsin-like activity of human 26S proteasome using Suc-LLVY-MCA as substrate measured for 1 hr by fluorescence assay
pIC50: −log10 of the molar value.
assayReadout: pIC50

- CCC(=C(c1ccc(OCCN2CCCCCC2)cc1)c1ccc(OCCN2CCCCCC2)cc1)c1cccc(CNC(=O)CN[C@@H](CC(C)C)C(=O)N[C@@H](CC(C)C)C(=O)N[C@H](C(=O)N[C@@H](Cc2ccc(O)cc2)C(=O)NC(C)=O)C(C)C)c1: < 4.40
- N=C(N)NCCC[C@H](NC(=O)[C@H](CCCNC(=N)N)NC(=O)[C@H](CCCNC(=N)N)NC(=O)[C@H](CCCNC(=N)N)NC(=O)[C@H](CCCNC(=N)N)NC(=O)[C@H](CCCNC(=N)N)NC(=O)[C@H](CCCNC(=N)N)NC(=O)[C@H](CCCNC(=N)N)NC(=O)CN)C(N)=O: < 4.40
- CCC(=C(c1ccc(OCCN2CCCCCC2)cc1)c1ccc(OCCN2CCCCCC2)cc1)c1cccc(CNC(=O)CN[C@@H](CCCNC(=N)N)C(=O)N[C@@H](CCCNC(=N)N)C(=O)N[C@@H](CCCNC(=N)N)C(=O)N[C@@H](CCCNC(=N)N)C(=O)N[C@@H](CCCNC(=N)N)C(=O)N[C@@H](CCCNC(=N)N)C(=O)NC(C)=O)c1: < 4.40
